Assignment: determine reported IC50 for the given compounds.
molecular target: PI3K (Homo sapiens); construct: PI3 Kinase β IC50; other: PI3 Kinase β; other: PI3 Kinase β isoform, fluorescence polarization; assay: Fluorescence polarization assay for PI3K; format: biochemical; details: PI3 Kinase β isoform, fluorescence polarization

Observed IC50 on PI3K (Homo sapiens) for O=C(Nc1ccc(-c2nc(N3C[C@@H]4C[C@H]3CO4)c3cnn(CC(F)(F)F)c3n2)cc1)NC1CC1 [Example 296] , please.
> 10 µM

Give the reported IC50 for COC1CCC(n2ncc3c(N4CC5CCC(C4)O5)nc(-c4ccc(NC(=O)NC5CC5)cc4)nc32)CC1 (stereo not drawn) [Example 302] (system: PI3K (Homo sapiens)).
> 10 µM

Give recorded IC50 with PI3K (Homo sapiens) for the following compound: COC1CCC(n2ncc3c(N4CC5CCC(C4)O5)nc(-c4ccc(NC(=O)Nc5ccc(N6CCN(C)CC6)cc5)cc4)nc32)CC1 (stereo not drawn) [Example 304]
2.84 µM

====

biological target: Human mTOR (FLAG-TOR) (Homo sapiens, UniProt P42345); construct: FLAG; test: Human mTOR kinase assay with purified enzyme, DELFIA format; assay type: biochemical; conditions: purified human mTOR enzyme, DELFIA format
Experimental readout: pIC50
Scale note: pIC50 = -log10(concentration in M).

Please look up its pIC50: CCn1nc(-c2cccnc2)c2c(N3CC4CCC(C3)O4)nc(-c3ccc(NC(=O)NC)cc3)nc21 [Example 349]
8.05

Request the reported pIC50 associated with Cn1ncc2c(N3CC4COC(C3)O4)nc(-c3ccc(NC(=O)Nc4cccnc4)cc3)nc21 (stereo not shown) [Example 391]
8.38

State the recorded pIC50 for this entry: COC1CCC(n2ncc3c(N4CC5CCC(C4)O5)nc(-c4ccc(NC(=O)Nc5ccc(C(N)=O)cc5)cc4)nc32)CC1 (stereo not shown) [Example 306]
10.10

What does the record list as pIC50 for CNC(=O)Nc1ccc(-c2nc(N3CC4CCC(C3)O4)c3sc(CN4CCN(C)CC4)cc3n2)cc1 [Example 423] ?
7.71

====

molecular target: PI3K (Homo sapiens, UniProt P48736); construct: PI3 Kinase γ IC50; other: PI3 Kinase γ; other: PI3 Kinase γ isoform, fluorescence polarization; experiment: Fluorescence polarization assay for PI3K; format: biochemical; conditions: PI3 Kinase γ; read-out: PI3 Kinase γ IC50
Sequence (P48736 whole entry, canonical isoform): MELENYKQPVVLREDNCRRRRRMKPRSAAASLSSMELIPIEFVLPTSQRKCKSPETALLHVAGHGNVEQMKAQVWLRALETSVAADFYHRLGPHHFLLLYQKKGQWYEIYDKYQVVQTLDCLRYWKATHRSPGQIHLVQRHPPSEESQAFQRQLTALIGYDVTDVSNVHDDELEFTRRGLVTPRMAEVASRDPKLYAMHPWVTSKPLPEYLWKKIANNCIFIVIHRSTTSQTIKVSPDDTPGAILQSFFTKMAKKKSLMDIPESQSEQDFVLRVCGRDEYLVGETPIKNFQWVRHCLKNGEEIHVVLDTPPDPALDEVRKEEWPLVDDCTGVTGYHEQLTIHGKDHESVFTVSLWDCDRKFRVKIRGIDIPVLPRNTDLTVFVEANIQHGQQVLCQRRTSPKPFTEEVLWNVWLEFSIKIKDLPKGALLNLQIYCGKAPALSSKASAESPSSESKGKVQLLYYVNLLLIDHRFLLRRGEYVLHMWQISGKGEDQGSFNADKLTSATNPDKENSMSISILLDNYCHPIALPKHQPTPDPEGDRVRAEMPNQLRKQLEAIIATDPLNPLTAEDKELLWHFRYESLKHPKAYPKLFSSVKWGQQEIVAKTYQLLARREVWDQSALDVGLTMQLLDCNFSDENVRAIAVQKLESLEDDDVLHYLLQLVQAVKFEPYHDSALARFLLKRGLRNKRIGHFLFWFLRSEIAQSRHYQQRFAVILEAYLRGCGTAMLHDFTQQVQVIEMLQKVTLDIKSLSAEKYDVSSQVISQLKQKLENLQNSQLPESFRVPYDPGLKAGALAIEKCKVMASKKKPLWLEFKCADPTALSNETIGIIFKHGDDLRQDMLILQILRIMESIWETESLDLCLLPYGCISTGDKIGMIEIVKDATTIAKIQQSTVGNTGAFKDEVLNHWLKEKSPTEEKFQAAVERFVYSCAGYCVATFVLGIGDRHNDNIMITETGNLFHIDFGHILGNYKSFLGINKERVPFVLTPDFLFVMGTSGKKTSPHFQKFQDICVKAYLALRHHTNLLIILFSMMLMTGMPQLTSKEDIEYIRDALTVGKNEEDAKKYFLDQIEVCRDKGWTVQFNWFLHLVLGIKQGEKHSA
Experimental readout: IC50 (µM)
Reply numerically in µM, unit not repeated.

What is its IC50 for PI3K (Homo sapiens, UniProt P48736)? Entry: `CC(C)n1ncc2c(N3CC4CCC(C3)O4)nc(-c3ccc(NC(=O)Nc4ccncc4)cc3)nc21`
0.342

Observed IC50 on PI3K (Homo sapiens, UniProt P48736) for O=C(Nc1ccncc1)Nc1ccc(-c2nc(N3CC4CCC(C3)O4)c3cnn(CC(F)(F)F)c3n2)cc1 [Example 5] , please.
1.03

Return IC50 measured with PI3K (Homo sapiens, UniProt P48736) given this compound: `CN1CCN(c2ccc(NC(=O)Nc3ccc(-c4nc(N5CC6CCC(C5)O6)c5cnn(CCC#N)c5n4)cc3)cc2)CC1`
1.68

What reported IC50 corresponds to `O=C(Nc1ccc(-c2nc(N3CC4CCC(C3)O4)c3cnn(CCO)c3n2)cc1)NC1CC1` on PI3K (Homo sapiens, UniProt P48736)?
12

PI3K (Homo sapiens, UniProt P48736) / IC50 / `Oc1cccc(-c2nc(N3CC4CCC(C3)O4)c3cnn(-c4ccccc4)c3n2)c1` : value?
7.83

Item: `O=C(NCCO)Nc1ccc(-c2nc(N3CC4CCC(C3)O4)c3cnn(CCO)c3n2)cc1` Test system: PI3K (Homo sapiens, UniProt P48736) Read-out: IC50 Value: ?
7.33

What IC50 appears in the records for this compound with PI3K (Homo sapiens, UniProt P48736)? `CCn1ncc2c(N3CC4CCC(C3)O4)nc(-c3ccc(NC(=O)NCCN)cc3)nc21`
3.13

What value of IC50 on PI3K (Homo sapiens, UniProt P48736) does `COC(=O)N1CCC(n2ncc3c(N4CC5CCC(C4)O5)nc(-c4ccc(NC(=O)Nc5ccc(N6CCN(C)CC6)cc5)cc4)nc32)CC1` have?
0.867

// map `CC(C)n1ncc2c(N3CC4CCC(C3)O4)nc(-c3ccc(NC(=O)NCCF)cc3)nc21` to recorded IC50 (system: PI3K (Homo sapiens, UniProt P48736))
6.37

# returns recorded IC50 (system: PI3K (Homo sapiens, UniProt P48736)) for `CN(C)CCNC(=O)Nc1ccc(-c2nc(N3CC4CCC(C3)O4)c3cnn(C4CCC5(CC4)OCCO5)c3n2)cc1`
7.64

Lookup: IC50 / PI3K (Homo sapiens, UniProt P48736) / `O=C(Nc1ccc(-c2nc(N3CC4CCC(C3)O4)c3cnn(CCO)c3n2)cc1)Nc1cccnc1`
3.99

Short answer please: IC50, PI3K (Homo sapiens, UniProt P48736), entry `O=C(Nc1ccncc1)Nc1ccc(-c2nc(N3CC4CCC(C3)O4)c3cnn(CCO)c3n2)cc1`
2.2

Please state recorded IC50 (tested on PI3K (Homo sapiens, UniProt P48736)) of `CCn1ncc2c(N3CC4CCC(C3)O4)nc(-c3ccc(NC(=O)Nc4ccncc4)cc3)nc21`
1.12

Query for PI3K (Homo sapiens, UniProt P48736): what IC50 does the record show for `CC(C)(C)n1ncc2c(N3CC4CCC(C3)O4)nc(-c3ccc(NC(=O)Nc4ccccc4)cc3)nc21` ?
0.577

Query the reported IC50 for PI3K (Homo sapiens, UniProt P48736); item: `CCn1ncc2c(N3CC4CCC(C3)O4)nc(-c3ccc(NC(=O)Nc4ccc(OCCO)cc4)cc3)nc21`
1.1

Lab note: need IC50 for `O=C(Nc1ccc(CO)cc1)Nc1ccc(-c2nc(N3C[C@@H]4C[C@H]3CO4)c3cnn(CC(F)(F)F)c3n2)cc1` on PI3K (Homo sapiens, UniProt P48736), anyone have it?
3.02

What value of IC50 on PI3K (Homo sapiens, UniProt P48736) does `O=C(Nc1ccc(CCO)cc1)Nc1ccc(-c2nc(N3CC4CCC(C3)O4)c3cnn(CCO)c3n2)cc1` have?
2.16

Given the entry `COC(=O)N1CCC(n2ncc3c(N4CC5CCC(C4)O5)nc(-c4ccc(NC(=O)Nc5cccc(CO)c5)cc4)nc32)CC1` , what IC50 was observed with PI3K (Homo sapiens, UniProt P48736)?
1.83

Could you share what IC50 was measured for `COC(=O)N1CCC(n2ncc3c(N4CC5CCC(C4)O5)nc(-c4ccc(NC(=O)Nc5cccnc5)cc4)nc32)CC1` , tested on PI3K (Homo sapiens, UniProt P48736)?
6.84

Give IC50 (PI3K (Homo sapiens, UniProt P48736)) of the following compound: `Cn1ncc2c(N3CC4CCC(C3)O4)nc(-c3ccc(NC(=O)Nc4ccncc4)cc3)nc21`
0.782
